Assay: FRG1 promoter luciferase signal modulators, primary screen, FRG1 inhibition for FSHD, cell-based, C2C12 myotubes, firefly/Renilla luciferase, luminescence (AID 1084)
Details: higher = more signal, called active from +8 up or from −8 down
Entry flag: T if z-score reaches 0.02; F if it does not.

COMPOUND	GROUP
C[C@@H](OCc1ccccc1)C1NC(=O)[C@@]23C(=O)N[C@@H](Cc4ccccc4)C2[C@H](C)[C@@]2(C)O[C@H]2C3/C=C/C/C=C\CNC(=O)[C@H](Cc2ccccc2)NC1=O (some centres not stated)	T
C=CC[C@]1(C(=O)NCc2ccccc2)COC(c2ccc(OCCCO)cc2)=N1	T
CN(C)CCCNC(=O)[C@@H]1c2ccccc2C(=O)N(C2Cc3ccccc3C2)[C@H]1c1ccc(CO)cc1	F
CN1C(=O)C2C=CC(C(O)c3ccc(-c4ccccc4)s3)N(Nc3ccccc3)C2C1=O (configuration not stated)	T
COc1cc(OC)c(C(O)C2C=CC3C(=O)N(c4ccccc4)C(=O)C3N2Nc2ccccc2F)cc1Br (configuration not stated)	F
CCCCC(=C=CC[C@@H](O)c1cccc(OCCO)c1)C[C@@H](O)COCc1ccccc1	F
CO[C@H]1O[C@H](CO)[C@@H](OC(=O)Nc2ccc(C(F)(F)F)cc2)[C@H](OC(=O)Nc2ccccc2-c2ccccc2)[C@@H]1OC(=O)Nc1ccccc1-c1ccccc1	F

* * *

Target: Pro-neuregulin-1, membrane-bound isoform (Homo sapiens) (UniProt Q02297)
Sequence (Q02297 whole entry, looked up, canonical isoform): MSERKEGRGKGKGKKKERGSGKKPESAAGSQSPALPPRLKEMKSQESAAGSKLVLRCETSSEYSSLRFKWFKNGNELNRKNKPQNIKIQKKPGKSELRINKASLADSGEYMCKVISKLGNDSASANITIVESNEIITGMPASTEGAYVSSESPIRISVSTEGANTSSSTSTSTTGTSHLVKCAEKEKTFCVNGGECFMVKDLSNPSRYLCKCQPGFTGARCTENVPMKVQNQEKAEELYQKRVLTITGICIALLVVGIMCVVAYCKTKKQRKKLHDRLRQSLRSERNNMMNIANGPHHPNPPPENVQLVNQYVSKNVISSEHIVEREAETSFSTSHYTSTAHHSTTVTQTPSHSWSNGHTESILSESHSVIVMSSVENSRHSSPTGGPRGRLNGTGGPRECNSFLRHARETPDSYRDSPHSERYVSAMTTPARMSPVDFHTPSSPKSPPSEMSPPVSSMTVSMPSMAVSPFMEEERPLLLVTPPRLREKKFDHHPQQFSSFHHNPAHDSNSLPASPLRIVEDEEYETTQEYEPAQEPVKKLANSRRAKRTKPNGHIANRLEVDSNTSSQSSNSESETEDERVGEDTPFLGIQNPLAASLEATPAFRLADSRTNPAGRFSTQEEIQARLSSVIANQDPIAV
Assay: NRG1 binders on small-molecule microarrays, primary screen, psychiatric disease protein project, biochemical, small-molecule microarray, fluorescence 635/667 (AID 1075);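 further: score combines 667 nm spot fluorescence with signal to noise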
Settings: NRG1 binding, 635 nm fluorescence, higher = more signal
Answer Condition not met if composite z-score is under 0.9, and Condition met if it is 0.9 or more.

MOLECULE	SYSTEM	GROUP
CCN(CC)c1ccc(N2CC=CC34O[C@@H]5C=CCOC(=O)[C@@H]5[C@H]3C(=O)N(CCO)[C@@H]4C2=O)cc1 (some centres undefined)	Pro-neuregulin-1, membrane-bound isoform (Homo sapiens) (UniProt Q02297)	Condition not met
COc1ccc(CCNC(=O)[C@@]2(Sc3ccc(C)cc3)CC(=O)N(Cc3cc(C(F)(F)F)cc(C(F)(F)F)c3)[C@@H]2c2ccc(CO)cc2)cc1	Pro-neuregulin-1, membrane-bound isoform (Homo sapiens) (UniProt Q02297)	Condition not met
COc1ccc(C#Cc2ccc3c(c2)[C@]2(C(=O)N3)[C@H](C(=O)Nc3nc4ccccc4s3)[C@H]3C(=O)O[C@H](c4ccccc4)[C@H](c4ccccc4)N3[C@@H]2c2ccc(OCCO)cc2)cc1	Pro-neuregulin-1, membrane-bound isoform (Homo sapiens) (UniProt Q02297)	Condition met
COc1cc(OC)c(C(O)C2C=CC3C(=O)N(c4ccccc4)C(=O)C3N2Nc2ccccc2F)cc1Br (centres undefined)	Pro-neuregulin-1, membrane-bound isoform (Homo sapiens) (UniProt Q02297)	Condition met
C=CC[C@]1(C(=O)OC)N=C(c2ccc(OCCCO)cc2)O[C@H]1c1ccccc1N=[N+]=[N-]	Pro-neuregulin-1, membrane-bound isoform (Homo sapiens) (UniProt Q02297)	Condition met
COCCOC(=O)N1C(=O)[C@@]2(c3cc(C#CC4=CCCCC4)ccc31)[C@H](C(=O)N1CCN(c3ncccn3)CC1)[C@H]1C(=O)O[C@H](c3ccccc3)[C@H](c3ccccc3)N1[C@@H]2c1ccccc1OCCO	Pro-neuregulin-1, membrane-bound isoform (Homo sapiens) (UniProt Q02297)	Condition not met
C=CC[C@@]1(C(=O)O)N=C(c2ccc(OCCCO)cc2)O[C@@H]1c1ccccc1CN=[N+]=[N-]	Pro-neuregulin-1, membrane-bound isoform (Homo sapiens) (UniProt Q02297)	Condition met
CN1C(=O)[C@]2(CCS(=O)(=O)c3ccccc3)N=C(c3ccc(OCCCO)cc3)O[C@@H]2c2ccccc21	Pro-neuregulin-1, membrane-bound isoform (Homo sapiens) (UniProt Q02297)	Condition met
COCCOC(=O)N1C(=O)[C@@]2(c3cc(C#CCC(C(=O)OC)C(=O)OC)ccc31)[C@H](C(=O)N1CCCCCCC1)[C@H]1C(=O)O[C@H](c3ccccc3)[C@H](c3ccccc3)N1[C@@H]2c1ccccc1OCCO	Pro-neuregulin-1, membrane-bound isoform (Homo sapiens) (UniProt Q02297)	Condition not met
COC(=O)[C@@H]1N=C(c2ccc(OCCCO)cc2)O[C@@H]1c1ccccc1CN=[N+]=[N-]	Pro-neuregulin-1, membrane-bound isoform (Homo sapiens) (UniProt Q02297)	Condition met
CC(=O)NCCCC[C@@H]1NC(=O)[C@@H]2C[C@H](C(=O)NCCCCCC[N+](C)(C)C)[C@H](c3ccc(O)cc3)N2C1=O	Pro-neuregulin-1, membrane-bound isoform (Homo sapiens) (UniProt Q02297)	Condition not met
O=C1NC(=O)C2C1C=CC(C(O)c1cccc(O)c1)N2Nc1ccc(Cl)cc1Cl (centres undefined)	Pro-neuregulin-1, membrane-bound isoform (Homo sapiens) (UniProt Q02297)	Condition met

Where do the numbers come from? From PubChem BioAssay.
